Quick list: IC50 per entry.
molecular target: acid ceramidase (Homo sapiens, UniProt Q13510); construct: Cell lysates overexpressing acid ceramidase were used as the enzyme source; expressed in transfected cells; experiment: Acid ceramidase inhibition, biochemical fluorescent assay with cell lysates overexpressing acid ceramidase, substrate Rbm14-12; conditions: substrate Rbm14-12 6.3 μM, pH 4.5, 1 hr preincubation at RT
Sequence (Q13510 22-395): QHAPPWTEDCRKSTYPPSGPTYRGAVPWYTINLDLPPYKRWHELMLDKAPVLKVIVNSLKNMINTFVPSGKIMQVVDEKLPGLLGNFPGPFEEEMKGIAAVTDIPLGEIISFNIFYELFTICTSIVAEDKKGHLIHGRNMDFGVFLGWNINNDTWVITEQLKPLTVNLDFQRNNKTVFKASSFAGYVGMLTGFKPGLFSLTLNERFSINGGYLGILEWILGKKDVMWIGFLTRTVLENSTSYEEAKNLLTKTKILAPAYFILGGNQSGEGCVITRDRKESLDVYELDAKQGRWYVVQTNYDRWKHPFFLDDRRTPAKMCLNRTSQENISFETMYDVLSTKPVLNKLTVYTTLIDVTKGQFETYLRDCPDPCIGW

// known answers, use as guide
molecule=CN1CCN(CCOc2nc3ccccc3n2C(=O)NCCC#Cc2ccccc2)CC1 measured_parameter=IC50 value_observed="< 0.2 µM"
molecule="COc1cc2c(cc1-c1cncnc1)ncn2C(=O)NCC(C)C [Example 79a]" measured_parameter=IC50 value_observed="0.2 to 1 µM"
molecule=COc1cccc2c1ncn2C(=O)NCCOc1ccccc1 measured_parameter=IC50 value_observed="< 0.2 µM"
molecule="COc1nc2cc(N3CCOCC3)ccc2n1C(=O)NCCCc1ccccc1 [Example 134b]" measured_parameter=IC50 value_observed="< 0.2 µM"
molecule=CC(C)C#CCNC(=O)n1cnc2c(N3CC4(CN(C)C4)C3)cccc21 measured_parameter=IC50 value_observed="0.2 to 1 µM"

In the following, a different molecule is considered.
What does the data say about its IC50? Entry: CCOc1nc2cccnc2n1C(=O)NCCC(C)C
< 0.2 µM

====

experiment: Compound solubility in water
Output 1 for solubility not less than 20 µg/mL; output 0 otherwise.

compound=CN1C[C@@H]2C[C@H]1CN2c1cccc2c1ncn2C(=O)NCCCc1ccccc1 class_assignment=1
compound="CCCCNC(=O)n1cnc2c(C3CCN(C)CC3)cc(C)cc21 [Example 107a]" class_assignment=1
compound="CCOc1nc2ncccc2n1C(=O)NCCCc1ccccc1 [Example 91a]" class_assignment=0
compound="CCC(C)NC(=O)n1c(OC)nc2ccc(-c3cncnc3)cc21 (stereo not shown) [Example 109a]" class_assignment=1
compound="O=C(NCCc1ccccc1)n1cnc2cccnc21 [Example 19b]" class_assignment=1
compound=O=C(NCCCc1ccccc1)n1cnc2c(N3CCN(C4CC4)CC3)cccc21 class_assignment=0
compound="CN1CC2CCC1CN2c1cccc2c1ncn2C(=O)NCCC1CCC(F)(F)C1 (stereo not shown)" class_assignment=1
compound=CC(C)CNC(=O)n1c(=O)n(C)c2ccc(-c3cccnc3)cc21 class_assignment=0

I'd appreciate it if you could say whether COc1nc2cc(N3CCOCC3)ccc2n1C(=O)NCCCc1ccc(F)cc1 [Example 221b] has solubility at least equal to 20 µg/mL.
0

I'd appreciate it if you could say whether CC(C)CCNC(=O)n1cnc2c(N3CCN(C)CC3=O)cccc21 has solubility at least equal to 20 µg/mL.
0

I'd appreciate it if you could say whether O=C(NCCCc1ccccc1)n1cnc2ncccc21 has solubility at least equal to 20 µg/mL.
1

====

assay: Compound solubility in water
Measured Parameter: solubility (µg/mL)
Enter your answer as a number in µg/mL; do not include the unit.

// known answers, use as guide
compound="CCN1CCN(c2cccc3c2ncn3C(=O)NCCC2CCC(F)(F)C2)CC1 (centres unmarked)" unit_label=µg/mL value_observed=20
compound=COc1nc2cc(C3CCN(C)CC3)ccc2n1C(=O)NCC(C)C unit_label=µg/mL value_observed=39
compound="CN(C)C1CCN(c2cccc3c2ncn3C(=O)NCCCc2ccccc2)C1 (centres unmarked)" unit_label=µg/mL value_observed=21
compound="CN1CCC2CCN(c3cccc4c3ncn4C(=O)NCCCc3ccccc3)CC21 (centres unmarked)" unit_label=µg/mL value_observed=22
compound=CCCCNC(=O)n1cnc2c(C3CCN(C)CC3)cc(OC)cc21 unit_label=µg/mL value_observed=28.1
compound="COc1nc2ccc(N3CCOCC3)cc2n1C(=O)NCCCOC(F)(F)F [Example 233a]" unit_label=µg/mL value_observed=30
compound=CCCCNC(=O)n1c(OC)nc2c(OC)cccc21 unit_label=µg/mL value_observed=28

In the following, a different compound is considered.
What does the data say about its solubility? Entry: O=C(NCCCCc1ccccc1)n1cnc2c(N3CCC4(CC3)COC4)cccc21
0.6
